test: chemical genetic growth profiling, strain panel (AID 1159580);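 also: tested at 20 µM; growth read once vehicle control cultures reached saturation at 30 °C; 1 = growth at the plate median or of vehicle wells; lower values mean less growth of the strain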; settings: S. cerevisiae deletion strains, growth OD, locus YKL193C, strain SDS22, stronger effect = lower value
The campaign covered roughly 5,500 compounds. About 2,000 (36%) were called active. Another 18% or so got no clear call; they are omitted. This is one part of the list.
Test Readout: normalized growth

Structure | Readout Value
O=C(Nc1ccc(Cl)cc1)OCCSc1nc2ccccc2s1 | 0.983 (inactive)
CC(C)(C)c1ccc(C(=O)NNc2c(Cl)cccc2Cl)cc1 | 0.974 (inactive)
Cc1ccc(NNC(=O)c2c(C)noc2C)cc1Cl | 0.985 (inactive)
CC(C)(C)c1ccc(C(=O)Nc2ccc(C(F)(F)F)cc2)s1 | 0.986 (inactive)

====

Reported normalized growth is given for each of the following compounds.
experiment: chemical genetic growth profiling, strain panel (AID 1159580);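 also: tested at 20 µM; growth read once vehicle control cultures reached saturation at 30 °C; 1 = growth at the plate median or of vehicle wells; lower values mean less growth of the strain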; conditions: S. cerevisiae deletion strains, growth OD, locus YDR334W, strain swr1, stronger effect = lower value
The whole screen tested about 5,500 compounds, of which about 2,000 (36%) were called active. Inconclusive results (about 18%) are left out. This is one part of the list.

Compound | normalized growth
O=C1C=C2C=C[C@@H]3C[C@@]2(O1)[C@H]1CCCCN31 | 0.956 (inactive)
C[N+]1(C)C2CC(OC(=O)[C@@H](CO)c3ccccc3)CC1C1OC12 (stereo partly specified) | 0.933 (inactive)
Oc1ccc(Cl)cc1Cc1cc(Cl)ccc1O | 0.0861 (active)
Cc1c(Cl)cccc1Nc1ccccc1C(=O)O | 0.812 (active)
OCc1ccccc1O | 1.03 (inactive)
O=C1OC(c2ccc(O)cc2)(c2ccc(O)cc2)c2ccccc21 | 0.897 (active)
CCCCOC(=O)c1ccccc1C(=O)OCCCC | 0.991 (inactive)
Cc1cccc(C)c1NC1=NCCCS1 | 1.01 (inactive)
Cc1cccc(Nc2ccccc2C(=O)O)c1C | 0.908 (inactive)
CC1(C)O[C@H]2[C@H](O)C[C@](O)(C(N)=O)C[C@H]2O1 | 1.03 (inactive)
OC(Cn1cncn1)(Cn1cncn1)c1ccc(F)cc1F | 0.996 (inactive)
C[C@@H]1C(=O)OC2[C@H](O)C34[C@@H]5OC(=O)[C@@]3(O[C@@H]3OC(=O)[C@H](O)[C@@]34[C@H](C(C)(C)C)[C@H]5O)[C@]21O (stereo partly specified) | 0.976 (inactive)
COc1c2ccoc2c(OC)c2oc(=O)ccc12 | 0.938 (inactive)
NC(=O)c1cccc(N)c1 | 0.96 (inactive)
C[C@H]1CC[C@@H](C(C)(C)O)CC2=C1CC[C@@H]2C | 1.01 (inactive)
CC(C)(Oc1ccc(C2CC2(Cl)Cl)cc1)C(=O)O (stereo unspecified) | 1 (inactive)
CC(C)[C@@H]1CC[C@@H](C)C[C@H]1O | 0.951 (inactive)
Nc1ccn(C2O[C@H](CO)[C@@H](O)[C@@H]2O)c(=O)n1 (stereo partly specified) | 0.987 (inactive)
O=C(O)c1ccccc1-c1c2cc(Br)c(=O)cc-2oc2[c]([Hg])c(O)c(Br)cc12 | 1.03 (inactive)
CC(C)C(=O)Nc1ccc([N+](=O)[O-])c(C(F)(F)F)c1 | 1.01 (inactive)
O=S1OCC2C(CO1)C1(Cl)C(Cl)=C(Cl)C2(Cl)C1(Cl)Cl (stereo unspecified) | 0.99 (inactive)
CC(C)(C)CC(C)(C)c1ccc(O)c(Cc2ccc(Cl)cc2Cl)c1 | 1.04 (inactive)
COC(=O)C(C)c1ccc(C(=O)c2cccs2)cc1 (stereo unspecified) | 1.01 (inactive)
O=C1[C@H](CCC(O)c2ccc(F)cc2)[C@@H](c2ccc(O)cc2)N1c1ccc(F)cc1 (stereo partly specified) | 0.983 (inactive)
CCCOc1ccc(C(=O)OCCN(CC)CC)cc1N | 0.995 (inactive)
CC(C)NNC(=O)c1ccncc1 | 1.03 (inactive)
CCCCNc1ccc(C(=O)OCCN(C)C)cc1 | 1.04 (inactive)
CCCCCCOc1ccccc1C(N)=O | 0.959 (inactive)
CCCCOC(=O)c1ccc(N)cc1 | 0.914 (inactive)
CC(=O)Oc1c(C)cccc1C(=O)O | 1.01 (inactive)
Oc1ccc(Cl)cc1 | 1.01 (inactive)
O=C(C1CCCCC1)N1CC(=O)N2CCc3ccccc3C2C1 (stereo unspecified) | 1.01 (inactive)
CC(C)NC[C@H](O)COc1cccc2ccccc12 | 0.999 (inactive)
O=C1CC2OCC=C3CN4CC[C@]56c7ccccc7N1C5[C@H]2[C@H]3CC46 (stereo partly specified) | 1.01 (inactive)
Clc1cccc(Cl)c1NC1=NCCN1 | 0.954 (inactive)
NS(=O)(=O)c1cc2c(cc1Cl)NC(C(Cl)Cl)NS2(=O)=O (stereo unspecified) | 0.979 (inactive)
C=C1C(=O)O[C@@H]2C[C@@]3(C)CCC[C@H](C)C3=C[C@H]12 | 0.442 (active)
C=CCCCCCCCCCCCC(O)CC(O)COC(C)=O (stereo unspecified) (tested in a mixture with another compound) | 0.993 (inactive)
CO/N=C(\C(=O)NC1C(=O)N2C(C(=O)OC(C)OC(C)=O)=C(COC(N)=O)CSC12)c1ccco1 (stereo unspecified) | 1 (inactive)
CC1(C)NC(=O)N(c2ccc([N+](=O)[O-])c(C(F)(F)F)c2)C1=O | 0.989 (inactive)
Nc1ccc(N=Nc2ccccc2)c(N)n1 | 0.833 (active)
COc1cc(-c2coc3cc(OC)c(OC)c(OC)c3c2=O)cc(OC)c1OC | 0.994 (inactive)
COc1ccc(CCN2CCC(Nc3nc4ccccc4n3Cc3ccc(F)cc3)CC2)cc1 | 0.979 (inactive)
COc1c(OC)c2occc2c2oc(=O)ccc12 | 0.967 (inactive)
CC(C)COCC(CN(Cc1ccccc1)c1ccccc1)N1CCCC1 (stereo unspecified) | 1.03 (inactive)
CCN(CC)C(=O)c1cccc(C)c1 | 1.03 (inactive)
